Biological target: T1, PUF4 RNA-binding domain (Saccharomyces cerevisiae, UniProt P25339 537-888)
T1 sequence: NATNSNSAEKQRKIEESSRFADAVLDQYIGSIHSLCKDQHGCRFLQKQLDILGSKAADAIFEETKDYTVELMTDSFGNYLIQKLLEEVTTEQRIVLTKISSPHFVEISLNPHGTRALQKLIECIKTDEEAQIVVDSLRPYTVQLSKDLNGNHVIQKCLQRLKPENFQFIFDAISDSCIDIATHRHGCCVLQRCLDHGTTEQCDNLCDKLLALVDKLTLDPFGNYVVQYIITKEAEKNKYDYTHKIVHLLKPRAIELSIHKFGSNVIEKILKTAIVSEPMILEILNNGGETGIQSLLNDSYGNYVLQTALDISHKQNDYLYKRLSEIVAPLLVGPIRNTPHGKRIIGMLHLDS
Assay: Mg; RNA-MaP; 20 mM Na-HEPES pH 7.4, 30 mM KOAc, 0.75 mM MgCl2, 0.1% Tween-20, 5% glycerol, 0.1 mg/mL BSA, 2 mM DTT; 25 C; 0.0125-409.6 nM protein
Settings: tags: N-His6-TEV cleaved; C-SNAP kept, Cy3B-labelled; label: tethered on chip by stalled RNA polymerase
quantity measured: Kd (nM)
Respond numerically; units are nM and should not be typed.

# get_value(readout='Kd', item= UCUCUUAAUGUAUAUAUAUCUCUU (ssRNA) [Id_i_S1_P3E.2_K3.1_C3.2_[C-2A]_[T-1A]_H3.1_A3.1_F3.1_T3.2] )
7.22

# get_value(readout='Kd', item= Ie_S4_P5E.1_K5.1_C5.1_H5.1_A5.1_[+6C]_F5.1_T5.1 (ssRNA) RNA: UUUGACAACUGAUCGUUCUUUCUUGUAUUCAUUAUUCUUUCUCGAUCAGUUGUCUUU )
13.4
